molecular target: S. pyogenes SKKanGAS, kanamycin survival, BacTiterGlo, 6 h; assay: S. pyogenes SKKanGAS kanamycin growth inhibitors – SKKanGAS strain, luminescence, dose confirmation, streptokinase promoter inhibitor project, dose response (AID 1902);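 active = EC50 no more than a set limit of log units above the highest dose; inactive = the rest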;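 note: lower survival reflects blocked streptokinase promoter driving kanamycin resistance gene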
Select the matching outcome among active, inactive

Compound	Target Under Test	Answer Label
c1ccc(CCNc2nc(-c3ccccn3)nc3ccccc23)cc1	S. pyogenes SKKanGAS, kanamycin survival, BacTiterGlo, 6 h	active

Now look at this one.
(Q) Assay outcome for CC(C)C1Nc2c(O)cc(Cl)c([N+](=O)[O-])c2C2C=CCC21 (configuration not stated) : what was it?
(A) active

====

Each entry below carries its recorded pEC50.
molecular target: S. pyogenes SKKanGAS, kanamycin survival, BacTiterGlo, 6 h; assay: S. pyogenes SKKanGAS kanamycin growth inhibitors – SKKanGAS strain, luminescence, dose confirmation, streptokinase promoter inhibitor project, dose response (AID 1902);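 note: lower survival reflects blocked streptokinase promoter driving kanamycin resistance gene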
Scale: pEC50 equals -log10([C]), with [C] in mol/L.

Compound	Measurement
O=C(NNC1=Nc2ccccc2SC1)c1ccc(F)cc1	5.16
Cc1ccc(-n2[nH]c(C)c(/C=N/NC(=O)c3cccc([N+](=O)[O-])c3)c2=O)cc1C	5.94
O=C(O)c1ccc(N/N=C/c2ccc(OC(=O)c3cccc(Cl)c3)cc2)cc1	5.85
OC(COc1ccc2ccccc2c1Br)Cn1cnc(-c2ccccc2)c1 (stereo not given)	5.24
Cc1ccc(N=Nc2ccc(O)c(P(=O)(c3ccccc3)c3ccccc3)c2)cc1	5.47
Cc1c(C(=O)N2CCC(Cc3ccccc3)CC2)sc2ncnc(N3CCC(C)CC3)c12	5.20

(Q) State its pEC50 for this compound: `O=C(COc1ccccc1-c1ccccc1)N/N=C/c1ccc2ccccc2c1`
(A) 5.19

(Q) State its pEC50: `Cc1cc(N/N=C/c2ccccc2O)nc(-c2ccccc2O)n1`
(A) 5.80

(Q) In one line, give reported pEC50 of the entry Cc1cccc(NC(=O)c2cc3n(n2)C(C(F)(F)F)CC(c2ccc4c(c2)OCO4)N3)c1 (stereo not given) .
(A) 5.14

(Q) Specify pEC50 for `Cc1c(N/N=C(\C#N)C(=O)c2ccc(Cl)cc2)c(=O)n(-c2ccccc2)n1C` and stop.
(A) 6.44

====

target: S. pyogenes SKKanGAS, kanamycin survival, BacTiterGlo, 6 h; assay: S. pyogenes SKKanGAS kanamycin growth inhibitors – SKKanGAS strain, luminescence, dose confirmation, streptokinase promoter inhibitor project, dose response (AID 1902);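 active = EC50 no more than a set limit of log units above the highest dose; inactive = the rest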;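 note: lower survival reflects blocked streptokinase promoter driving kanamycin resistance gene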
The reply should be one of these categories: active, inactive

Before answering, review these 6 worked examples.
Compound	Answer Label
COc1cnc(-c2ccccn2)nc1Sc1ccc(Cl)cc1	active
COc1ccc2c(c1)c(CC(=O)NCc1cc([N+](=O)[O-])ccc1O)c(C)n2C(=O)c1ccc(Cl)cc1	active
COc1ccccc1N1CCN(Cc2nc(N)nc(Nc3ccc(C)c(Cl)c3)n2)CC1	active
C/C(=N\NC(=O)COc1ccc(C)cc1C(C)C)c1cc2ccccc2o1	active
CNC1=C(N(C(C)=O)c2ccc(Br)cc2)C(=O)c2ccccc2C1=O	active
C=CCc1cc(/C=C2/NC(=O)N(CC)C2=O)cc(OCC)c1OCc1ccc(C(=O)O)cc1	active

(Q) Hello, I am checking results. What call was entered for `Cc1cccc(OCC(=O)Nc2ccccc2N2CCCCC2)c1C` ?
(A) active

(Q) Identify the outcome logged in this assay for the compound shown: `N#Cc1c(-c2ccccc2)c(-c2ccccc2)nn(CC(=O)NNC(=O)Nc2ccc(Cl)c(Cl)c2)c1=O`
(A) active

(Q) For this compound, state the assay outcome: `CC(C)Cn1c(O)c(N=NC(=O)c2cccc(S(=O)(=O)N3CCCCC3)c2)c2ccccc21`
(A) active

(Q) What did the test return for CCOc1ccc(/C=N/NC(=S)NC2CC3CC2C2C=CCC32)cc1 (stereo not drawn) ?
(A) active
